target: 3-oxo-5-alpha-steroid 4-dehydrogenase 1 (Homo sapiens, UniProt P18405); assay: Inhibitory concentration against human steroid 5-alpha-reductase I receptor expressed in CHO 1827 cells; format: cell-based
Class boundaries, taken from values of IC50, are as follows: LOW (below 100 nM), MEDIUM (100 nM to below 300 nM), HIGH (300 nM or more)

Please let me know in which category the item `CCCNC(=O)c1ccc(OC(=O)c2ccc3c(c2)CCC2=C(C)C(=O)CCN23)cc1` belongs.
MEDIUM

Please let me know in which category the item `COc1ccc(OC(=O)c2ccc3c(c2)CCC2=C(C)C(=O)CCN23)cc1` belongs.
MEDIUM

Please let me know in which category the item `CC1=C2CCc3cc(C(=O)Oc4ccc(Cl)cc4)ccc3N2CCC1=O` belongs.
HIGH

Please let me know in which category the item `CC1=C2CCc3cc(C(=O)Oc4ccc(C(N)=O)cc4)ccc3N2CCC1=O` belongs.
HIGH

Please let me know in which category the item `CC1=C2CCc3cc(C(=O)Oc4ccccc4C(F)(F)F)ccc3N2CCC1=O` belongs.
LOW

Please let me know in which category the item `CCOc1ccc(OC(=O)c2ccc3c(c2)CCC2=C(C)C(=O)CCN23)cc1` belongs.
MEDIUM

* * *

target: 3-oxo-5-alpha-steroid 4-dehydrogenase 2 (Homo sapiens, UniProt P31213); experiment: Inhibitory concentration against human steroid 5-alpha-reductase 2 receptor expressed in CHO 1829 cells; la= low activity; type: cell-based
Sequence (P31213 whole entry): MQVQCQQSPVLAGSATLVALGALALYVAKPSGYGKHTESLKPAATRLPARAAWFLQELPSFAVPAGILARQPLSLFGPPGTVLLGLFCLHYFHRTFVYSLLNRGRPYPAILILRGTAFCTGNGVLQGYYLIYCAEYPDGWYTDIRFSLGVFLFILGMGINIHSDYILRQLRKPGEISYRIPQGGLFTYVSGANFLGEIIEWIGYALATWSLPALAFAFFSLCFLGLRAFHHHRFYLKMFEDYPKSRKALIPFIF
MEASURED ATTRIBUTE: IC50

CC1=C2CCc3cc(C(=O)N(C(C)C)C(C)C)ccc3N2CCC1=O : Low activity
CC1=C2CCc3cc(C(=O)OCCCO)ccc3N2CCC1=O : Low activity
CC1=C2CCc3cc(C(=O)Oc4ccc(C(=O)NC(C)(C)C)cc4)ccc3N2CCC1=O : Low activity

* * *

Would you kindly list IC50 for each of these molecules?
target: 3-oxo-5-alpha-steroid 4-dehydrogenase 1 (Homo sapiens); assay: Inhibitory concentration against human steroid 5-alpha-reductase I receptor expressed in CHO 1827 cells; type: cell-based
One number for each entry, in µM.

Solved cases (4 shown):
CC1=C2CCc3cc(C(=O)OCCCO)ccc3N2CCC1=O : 6.99
CC(=O)Nc1ccc(OC(=O)c2ccc3c(c2)CCC2=C(C)C(=O)CCN23)cc1 : 0.707
CC1=C2CCc3cc(C(=O)Oc4ccc(C(=O)NC(C)(C)C)cc4)ccc3N2CCC1=O : 0.225
CC1=C2CCc3cc(C(=O)Oc4ccc(N)cc4)ccc3N2CCC1=O : 0.272

Here are 2 molecules. What values of IC50 were reported for them?
1. CC1=C2CCc3cc(C(=O)Oc4ccc(C)cc4)ccc3N2CCC1=O
2. CC1=C2CCc3cc(C(=O)Oc4ccc(C(F)(F)F)cc4)ccc3N2CCC1=O

1: 0.102; 2: 0.149

Here are 3 molecules. What values of IC50 were reported for them?
1. CC1=C2CCc3cc(C(=O)Oc4ccccc4F)ccc3N2CCC1=O
2. CC1=C2CCc3cc(C(=O)Nc4ccc(C)cc4)ccc3N2CCC1=O
3. CCN(CC)C(=O)c1ccc(OC(=O)c2ccc3c(c2)CCC2=C(C)C(=O)CCN23)cc1

0.138
1
0.463

* * *

Target: 3-oxo-5-alpha-steroid 4-dehydrogenase 1 (Homo sapiens)
Sequence (P18405 whole entry): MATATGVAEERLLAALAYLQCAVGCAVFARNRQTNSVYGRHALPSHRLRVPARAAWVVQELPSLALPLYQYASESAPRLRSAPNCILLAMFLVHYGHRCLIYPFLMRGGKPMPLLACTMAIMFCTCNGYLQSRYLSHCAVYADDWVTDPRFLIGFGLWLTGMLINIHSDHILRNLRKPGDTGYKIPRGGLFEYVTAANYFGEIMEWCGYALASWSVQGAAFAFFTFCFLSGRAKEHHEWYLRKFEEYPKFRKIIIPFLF
Assay: Inhibitory concentration against human steroid 5-alpha-reductase I receptor expressed in CHO 1827 cells
Format: cell-based
MEASURED ATTRIBUTE: IC50 (µM)
Give bare numbers, in µM.

Solved cases (3 shown):
CC1=C2CCc3cc(C(=O)Oc4cccc(C(F)(F)F)c4)ccc3N2CCC1=O : 0.271
CC1=C2CCc3cc(C(=O)Oc4ccc(F)cc4)ccc3N2CCC1=O : 0.093
CC1=C2CCc3cc(C(=O)Oc4cccc(F)c4)ccc3N2CCC1=O : 0.16

Shift focus to the following entry.
Request the reported IC50 associated with `COC(=O)c1ccc(OC(=O)c2ccc3c(c2)CCC2=C(C)C(=O)CCN23)cc1`
0.129
